Ref: patent US10752615B2

Reported values: pIC50 for TXK (Homo sapiens (Human)), one per item.
pIC50: −log10 of the molar value.
MEASURED PARAMETER: pIC50

(I) C=CC(=O)N1CC[C@]2(C1)C[C@H](n1c(NC(=O)c3ccns3)nc3ccccc31)C2 [Compound 46]
(II) C=CC(=O)N1CC[C@]2(C1)C[C@H](n1c(NC(=O)c3ccc(-c4noc(C)n4)s3)nc3ccccc31)C2 [Compound 93]
(III) C=CC(=O)N1CC[C@]2(C1)C[C@H](n1c(NC(=O)c3cnco3)nc3cc(CN[C@@H](C)C(C)(C)C)ccc31)C2 [Compound 6]
*Q* Sequence the entries by pIC50, beginning with the highest number. Labels, ranked as asked.
*A* I, III, II
(I: 8.96, III: 8.54, II: 8.01)

(A) C=CC(=O)N1CC[C@]2(C1)C[C@H](n1c(NC(=O)c3ccc(C#N)cc3)nc3ccccc31)C2 [Compound 48]
(B) C=CC(=O)N1CC2(CC(n3c(NC(=O)c4ccc(C(F)F)s4)nc4cc(CN[C@@H](C)C(C)(C)C)ccc43)C2)C1 [Compound 1]
(C) C=CC(=O)N1CC[C@]2(C1)C[C@H](n1c(NC(=O)c3cc(C)cs3)nc3ccccc31)C2 [Compound 79]
*Q* # desc sort on pIC50 across 3 molecules Form field (ranking): labels in requested order.
*A* A, C, B

====

TXK (Homo sapiens (Human)): recorded pIC50 for assorted compounds
Sequence (P42681 whole entry): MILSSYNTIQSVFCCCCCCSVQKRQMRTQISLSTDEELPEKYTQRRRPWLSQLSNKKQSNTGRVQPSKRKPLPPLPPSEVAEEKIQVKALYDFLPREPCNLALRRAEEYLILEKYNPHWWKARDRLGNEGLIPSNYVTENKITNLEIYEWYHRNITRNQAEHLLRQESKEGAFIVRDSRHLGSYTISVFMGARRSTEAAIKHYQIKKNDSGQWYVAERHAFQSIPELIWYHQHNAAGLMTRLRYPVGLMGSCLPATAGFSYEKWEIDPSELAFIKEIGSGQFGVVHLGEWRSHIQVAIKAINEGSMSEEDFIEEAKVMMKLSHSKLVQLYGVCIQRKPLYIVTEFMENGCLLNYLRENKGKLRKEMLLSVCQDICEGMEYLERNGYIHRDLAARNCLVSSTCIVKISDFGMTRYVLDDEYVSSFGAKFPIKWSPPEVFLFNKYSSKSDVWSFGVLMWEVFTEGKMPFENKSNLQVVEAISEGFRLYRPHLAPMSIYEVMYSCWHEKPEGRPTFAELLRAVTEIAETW
pIC50: −log10 of the molar value.
MEASURED PARAMETER: pIC50

(I) C=CC(=O)N1CC[C@]2(C1)C[C@H](n1c(NC(=O)c3ccc(-c4cccnn4)s3)nc3ccccc31)C2 [Compound 76]
(II) C=CC(=O)N1CC[C@]2(C1)C[C@H](n1c(NC(=O)c3ccc(-c4cncn4C)s3)nc3ccccc31)C2 [Compound 123]
(III) C=CC(=O)N1CC[C@]2(C1)C[C@@H](n1c(NC(=O)c3ccc(C(F)F)s3)nc3ccccc31)C2 [Compound 17]
(IV) C=CC(=O)N1CC[C@]2(C1)C[C@H](n1c(NC(=O)c3ccc(-c4cnco4)s3)nc3c(OC)cccc31)C2 [Compound 87]
(V) C=CC(=O)N1CC[C@]2(C1)C[C@@H](n1c(NC(=O)c3ccc(-c4cnco4)s3)nc3c(F)cccc31)C2 [Compound 67]
*Q* Order by pIC50, ascending. Your answer should be the labels, listed in the requested order.
*A* V, III, IV, I, II
(V: 7.71, III: 7.96, IV: 8.24, I: 8.55, II: 9.31)

(I) C=CC(=O)N1CC[C@]2(C1)C[C@@H](n1c(NC(=O)c3ccc(-c4cnco4)s3)nc3ccc(CO)cc31)C2 [Compound 78]
(II) C=CC(=O)N1CC[C@]2(C1)C[C@H](n1c(NC(=O)c3ccc(-c4cccc(C#N)c4)s3)nc3ccccc31)C2 [Compound 122]
(III) C=CC(=O)N1CC[C@]2(C1)C[C@H](n1c(NC(=O)c3ccc(C(=O)N4CCOCC4)s3)nc3ccccc31)C2 [Compound 91]
*Q* Arrange items by their pIC50 values in increasing order. The reply should contain the labels ordered as requested.
*A* III, I, II
(III: 7.75, I: 8.63, II: 8.91)

====

pIC50: −log10 of the molar value.
# pIC50 per entry for BTK (Homo sapiens (Human), UniProt Q06187)
MEASURED PARAMETER: pIC50

*Q* # input molecule: `C=CC(=O)N1CC[C@]2(C1)C[C@H](n1c(NC(=O)c3cccc(-c4cnco4)c3)nc3cc(CN[C@@H](C)C(C)(C)C)ccc31)C2` ; wanted: its pIC50
*A* 8.39

*Q* Record: `C=CC(=O)N1CC[C@]2(C1)C[C@H](n1c(NC(=O)c3ccc(-c4cnco4)s3)nc3ccc(F)cc31)C2`
*A* 8.88

*Q* # iterate: `C=CC(=O)N1CC[C@]2(C1)C[C@H](n1c(NC(=O)c3ccc(-c4ccnc(NC)n4)s3)nc3ccccc31)C2`
*A* 9.01

*Q* Consider next the molecule `C#Cc1ccc(C(=O)Nc2nc3ccccc3n2[C@H]2C[C@@]3(CCN(C(=O)C=C)C3)C2)s1` in the same way.
*A* 7.68

*Q* Queued: `C=CC(=O)N1CC[C@]2(C1)C[C@H](n1c(NC(=O)c3ccc(-c4cnco4)s3)nc3c(Cl)cccc31)C2`
*A* 6.91

(1) C=CC(=O)N1CC[C@]2(C1)C[C@H](n1c(NC(=O)c3ccc(-c4ccnc(C)n4)s3)nc3ccccc31)C2
(2) C=CC(=O)N1CC[C@]2(C1)C[C@@H](n1c(NC(=O)c3ccc(-c4cnco4)s3)nc3c(F)cccc31)C2
*Q* Smaller pIC50 value, 1 vs 2 ? Indicate your choice by writing its label.
*A* 2

====

Target or system TXK (Homo sapiens (Human)): recorded IC50 listed per item.
MEASURED PARAMETER: IC50 (nM)

# example entries with known answers
*Q* Given `C=CC(=O)N1CC[C@]2(C1)C[C@H](n1c(NC(=O)c3ccc(-c4nnc(C)o4)s3)nc3ccccc31)C2` , state its recorded IC50.
*A* 0.82

*Q* Next entry: `C=CC(=O)N1CC[C@]2(C1)C[C@H](n1c(NC(=O)c3ccc(-c4cnco4)s3)nc3ccc(F)cc31)C2`
*A* 0.29

*Q* What about this compound? `C=CC(=O)N1CC[C@]2(C1)C[C@H](n1c(NC(=O)c3ccc(-c4ccnc(OC)c4)s3)nc3ccccc31)C2`
*A* 0.35

*Q* Item: `C=CC(=O)N1CC[C@]2(C1)C[C@H](n1c(NC(=O)c3ccc(-c4ccccn4)s3)nc3ccccc31)C2`
*A* 1.62

*Q* Next up: `C=CC(=O)N1CC[C@]2(C1)C[C@H](n1c(NC(=O)c3ccc(-c4cnco4)s3)nc3cccc(F)c31)C2`
*A* 0.26

(P) C=CC(=O)N1CC[C@]2(C1)C[C@H](n1c(NC(=O)c3ccc(-c4ccn(C)c(=O)c4)s3)nc3ccccc31)C2
(Q) C=CC(=O)N1CC[C@]2(C1)C[C@H](n1c(NC(=O)c3ccc(-c4ccnc(C)c4)s3)nc3ccccc31)C2
*Q* Pick one, P or Q : lowest reported IC50. Use the label to indicate which entry you chose.
*A* Q
(Q: 0.21 nM, P: 14 nM)

====

pIC50: −log10 of the molar value.
Each entry below carries its measured pIC50, system: UniProt Q06187.
MEASURED PARAMETER: pIC50

*Q* Looking for the measured pIC50 of `C=CC(=O)N1CC[C@]2(C1)C[C@H](n1c(NC(=O)c3ccc(-c4cnco4)s3)nc3cc(N(C)C(=O)C4CCOCC4)ccc31)C2` , can you help?
*A* 9.14

*Q* Follow-up entry: `C=CC(=O)N1CC[C@]2(C1)C[C@H](n1c(NC(=O)c3ccc(-c4ccccc4)nc3)nc3cc(CN[C@@H](C)C(C)(C)C)ccc31)C2`
*A* 9.11

*Q* Try this compound too: `C=CC(=O)N1CC[C@]2(C1)C[C@H](n1c(NC(=O)c3ccnc(C)c3)nc3cc(CN[C@@H](C)C(C)(C)C)ccc31)C2`
*A* 8.26

*Q* Now this one: `C=CC(=O)N1CC[C@]2(C1)C[C@H](n1c(NC(=O)c3ccc(-c4ccc(F)nc4)s3)nc3ccccc31)C2`
*A* 8.04

*Q* Now the compound `C=CC(=O)N1CC[C@]2(C1)C[C@H](n1c(NC(=O)c3ccc(=O)[nH]c3)nc3ccccc31)C2`
*A* 8.12

(I) C=CC(=O)N1CC[C@]2(C1)C[C@H](n1c(NC(=O)c3ccc(-c4cnco4)s3)nc3ccccc31)C2
(II) C=CC(=O)N1CC[C@]2(C1)C[C@H](n1c(NC(=O)c3ccnn3C)nc3cc(CN[C@@H](C)C(C)(C)C)ccc31)C2
(III) C=CC(=O)N1CC[C@]2(C1)C[C@H](n1c(NC(=O)c3ccc(-c4cnccn4)s3)nc3ccccc31)C2
*Q* Give the ascending ranking of the items by reported pIC50. In plain terms: list the labels in the order you were asked to.
*A* II, III, I

(a) C=CC(=O)N1CC[C@]2(C1)C[C@H](n1c(NC(=O)c3ccc(C(F)F)s3)nc3cc(CN[C@H]4CC[C@H](O)CC4)ccc31)C2
(b) C=CC(=O)N1CC[C@]2(C1)C[C@H](n1c(NC(=O)c3ccc(-c4cncc(N)c4)s3)nc3ccccc31)C2
(c) C=CC(=O)N1CC[C@]2(C1)C[C@@H](n1c(NC(=O)c3ccc(C(F)F)s3)nc3cc(CN[C@@H](C)C(C)(C)C)ccc31)C2
*Q* // sort entries: pIC50, high to low // rank by listing labels in the order requested
*A* b, a, c

(A) C=CC(=O)N1CC[C@]2(C1)C[C@H](n1c(NC(=O)c3ccc(-c4cncc(NC)c4)s3)nc3ccccc31)C2
(B) C=CC(=O)N1CC[C@]2(C1)C[C@H](n1c(NC(=O)c3ccc(-c4ccc(OC)nc4)s3)nc3ccccc31)C2
*Q* Higher pIC50 between A and B ? Provide the label of your selected option as the answer.
*A* A
